Just for reference, patent US20220089784A1 is where these values come from.

EXPERIMENTAL_TARGET: T1, BoNT/F1 (proteolytic BoNT/F) (Clostridium botulinum, UniProt A7GBG3 1-1278)
T1 sequence: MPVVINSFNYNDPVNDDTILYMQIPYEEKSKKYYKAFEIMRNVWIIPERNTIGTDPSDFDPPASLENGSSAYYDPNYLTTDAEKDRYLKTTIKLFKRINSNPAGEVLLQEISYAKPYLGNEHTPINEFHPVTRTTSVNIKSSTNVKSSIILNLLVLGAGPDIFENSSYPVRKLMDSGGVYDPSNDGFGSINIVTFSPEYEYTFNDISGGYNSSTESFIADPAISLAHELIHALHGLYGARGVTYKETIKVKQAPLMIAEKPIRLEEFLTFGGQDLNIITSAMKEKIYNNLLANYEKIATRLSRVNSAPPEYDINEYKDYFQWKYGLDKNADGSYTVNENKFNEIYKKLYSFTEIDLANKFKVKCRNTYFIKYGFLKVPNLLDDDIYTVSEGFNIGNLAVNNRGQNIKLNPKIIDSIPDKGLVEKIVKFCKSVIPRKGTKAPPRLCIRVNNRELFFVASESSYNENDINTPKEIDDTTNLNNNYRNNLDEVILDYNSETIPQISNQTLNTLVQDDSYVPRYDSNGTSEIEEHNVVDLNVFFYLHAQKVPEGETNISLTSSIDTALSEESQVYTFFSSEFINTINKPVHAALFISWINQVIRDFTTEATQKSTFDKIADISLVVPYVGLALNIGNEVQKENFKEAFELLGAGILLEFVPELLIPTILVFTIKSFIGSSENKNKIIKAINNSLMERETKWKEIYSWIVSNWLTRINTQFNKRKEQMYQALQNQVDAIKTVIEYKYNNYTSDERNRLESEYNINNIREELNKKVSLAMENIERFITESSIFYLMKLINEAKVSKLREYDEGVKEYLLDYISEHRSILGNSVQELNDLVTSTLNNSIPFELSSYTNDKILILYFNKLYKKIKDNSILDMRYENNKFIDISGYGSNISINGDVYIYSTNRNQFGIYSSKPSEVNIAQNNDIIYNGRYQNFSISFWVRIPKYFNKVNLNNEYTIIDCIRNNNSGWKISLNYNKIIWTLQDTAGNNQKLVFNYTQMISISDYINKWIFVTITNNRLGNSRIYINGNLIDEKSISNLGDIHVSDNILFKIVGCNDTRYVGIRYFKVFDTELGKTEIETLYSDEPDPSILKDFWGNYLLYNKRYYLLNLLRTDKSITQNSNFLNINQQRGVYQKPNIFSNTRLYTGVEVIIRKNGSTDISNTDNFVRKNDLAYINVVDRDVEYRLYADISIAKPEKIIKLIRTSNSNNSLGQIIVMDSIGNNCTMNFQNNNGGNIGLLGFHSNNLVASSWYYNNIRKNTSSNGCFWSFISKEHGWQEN
EXPERIMENT_NOTES: yeast scFv FACS
MEASUREMENT_KIND: Kd (pM)
Entry rule: numbers only, all in pM.

Example binders with recorded Kd:
- BINDER: "4E17.2 scFv (scFv, V domains shown) VH: EVQLVQSGGNLVQPGGSLRLSCAATGPIGSHWMTWVRQAPGQGLEWVANINLDGTEKFYVDSVKGRFTVSRDNRKSSVFLQMNNLRVDDTAVYYCARLQWGGYNGWLSPWGQGTLVTVSS VL: DIEMTQSPPSLSASVGDRVSLTCRASEYIGTSLNWYQQKPGKAPKLLIYAASALHSGVPSRFSGSGSGTDFTLTISGLQPEDFATYYCQQANDLPLTFGGGTKLEIK"
  MEASUREMENT_KIND: "Kd"
  UNITS_LABEL: "pM"
  RESULT_VALUE: 390
- BINDER: "28H2 scFv (scFv, V domains shown) VH: QVQLQESGPGLVKPSQTVSLTCTVAGYSITNGNHWWNWIRQVSGSKLEWIGYITSSGSTDSNPSLKSRISITRDTSKNQLFLQLNSVTTEDIATYYCARSSNYFFHVLDYWGQGTSVTVSS VL: DIVLTQTPAIMSASPGEKVTMTCSASSSVSYMHWFQQKPGTSPKLWIYSTSNLASGVPARFSGSGSGTSYSLTISRMEAEDAATYYCQQRSSYPPTFGGGTRLEIK"
  MEASUREMENT_KIND: "Kd"
  UNITS_LABEL: "pM"
  RESULT_VALUE: 1550
- BINDER: "28C11 scFv (scFv, V domains shown) VH: EVQLQESGGDLVKPGGSLKLSCAASGFTFSYYGMSWVRQTPDKRLEWVATISSGGTYTYYPDSVKGRFTISRDNAKNTLYLQMSSLSSEDTAMYYCARRRSYDSVYWYFDVWGAGTSVTVSS VL: DIVLTQSPAITAASLGQKVTITCSASSSGSYIHWYQQKSGTSPKLLIYRTSNLASGVPSRFSGSGSGTFYSLTISSVEAEDAADYFCHQWSSYPTFGGGTKLEIK"
  MEASUREMENT_KIND: "Kd"
  UNITS_LABEL: "pM"
  RESULT_VALUE: 120

Shifting focus to the binder that follows.
Item 30C8 scFv (scFv, V domains shown) VH: EVQLKQSGTELVKPRSSVKMSCKASGYTFTDYWIGWTKQRPGHGLEWIGHIYPGGGYTNYNEKFKGKATLTADISSSAAYMQFSSPTSEDSAIYYCARIIMVESGDWYFDVWGTGTTLTVSS VL: DIVLTQSPAIMSASLGEEITLTCSASSSVSYMHWYQQKSGTSPKLLIYSTSNLASGVPSRFSGSGSGTSYSLTISNMEAEDAATYYCQQWSSNPYTFGGGTKLELK has what recorded Kd? 200
